Ref: ChEMBL document CHEMBL1961873

# Study system: RAC-gamma serine/threonine-protein kinase (Homo sapiens) (UniProt Q9Y243)
# Sequence (Q9Y243 whole entry): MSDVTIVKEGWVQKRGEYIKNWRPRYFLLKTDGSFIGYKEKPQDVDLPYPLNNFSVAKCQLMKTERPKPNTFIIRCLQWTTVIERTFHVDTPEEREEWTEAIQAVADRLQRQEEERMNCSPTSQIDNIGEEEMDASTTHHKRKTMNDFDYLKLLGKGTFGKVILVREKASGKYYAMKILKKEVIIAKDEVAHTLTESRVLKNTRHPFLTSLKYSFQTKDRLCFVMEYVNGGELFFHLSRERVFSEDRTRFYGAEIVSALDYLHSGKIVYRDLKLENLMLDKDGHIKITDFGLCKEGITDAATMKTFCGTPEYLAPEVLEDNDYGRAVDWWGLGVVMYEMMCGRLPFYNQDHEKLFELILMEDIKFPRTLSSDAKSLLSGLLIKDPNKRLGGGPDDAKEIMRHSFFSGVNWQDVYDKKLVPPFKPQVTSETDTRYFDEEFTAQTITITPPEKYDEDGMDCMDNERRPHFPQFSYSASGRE
# Condition summary: at 0.1 µM
# Description: GSK_PKIS: AKT3 mean inhibition at 0.1 uM [Nanosyn]
Outcome measure: inhibition (%)
Note: unit % is implicit; provide only the numeric part.

Would you mind telling me what inhibition value was observed for `NS(=O)(=O)c1ccc(N/C=C2\C(=O)Nc3ccc4ncsc4c32)cc1` ? 0.65

// lookup inhibition for `CCn1c(-c2nonc2N)nc2c(C#CC(C)(C)O)ncc(OC[C@@H]3CCCN3)c21` 67.5

inhibition lookup needed for `COc1cccc(-n2ncc3c(N/N=C/c4ccncc4)ncnc32)c1` , thanks. 3.63

Name the recorded inhibition for `COc1cc(C=NNc2ncnc3c2cnn3Cc2ccccc2)ccc1O` . -2.66

Recorded inhibition for `CCn1c(-c2nonc2N)nc2c(C#CC(C)(C)O)nc(O[C@@H](CN)c3ccccc3)cc21` , please? 93.3

Query (compound): `COc1cccc(COc2cc(-n3cnc4ccccc43)sc2C(N)=O)c1` ; field requested: inhibition -0.85

What does the data say about its inhibition? Entry: `NS(=O)(=O)c1ccc(-c2ccc3c(NC(=O)C4CC4)n[nH]c3c2)cc1` 0.25

Any idea what inhibition was measured for `NC(=O)c1sc(-n2cnc3cc(C(F)(F)F)ccc32)cc1OCc1ccccc1Br` ? 0.03

Suppose we examine the compound `Fc1ccc(-c2ncn(C3CCNCC3)c2-c2ccnc(Oc3ccccc3)n2)cc1` ; what inhibition value has been reported? -3.09

Name the reported inhibition value associated with the compound `COc1cc2c(cc1Nc1nc(Nc3ccsc3C(N)=O)c3cc[nH]c3n1)N(C(=O)CN(C)C)CCC2` 2.81

I have this compound here, `CCn1c(-c2nonc2N)nc2c(C#CCN)ncc(OCCCN)c21` , and I need its recorded inhibition. 1.83

----------
# Study system: Mitogen-activated protein kinase 9 (Homo sapiens) (UniProt P45984);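 also: reported figure is the mean inhibition of JNK2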
# Sequence (P45984 whole entry, looked up): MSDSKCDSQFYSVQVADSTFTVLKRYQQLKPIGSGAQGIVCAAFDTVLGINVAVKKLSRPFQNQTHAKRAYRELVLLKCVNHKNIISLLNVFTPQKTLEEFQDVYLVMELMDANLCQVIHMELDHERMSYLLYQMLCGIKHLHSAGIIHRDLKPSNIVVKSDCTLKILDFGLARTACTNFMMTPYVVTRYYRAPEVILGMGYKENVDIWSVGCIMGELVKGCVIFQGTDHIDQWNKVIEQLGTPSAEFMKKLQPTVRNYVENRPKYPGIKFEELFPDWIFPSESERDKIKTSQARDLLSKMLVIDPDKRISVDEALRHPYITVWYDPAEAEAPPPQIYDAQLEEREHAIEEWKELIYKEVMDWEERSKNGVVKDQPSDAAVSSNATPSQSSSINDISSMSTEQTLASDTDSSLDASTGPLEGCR
# Condition summary: at 1 µM
Outcome measure: inhibition (%)
Report only the number, with the unit % understood.

Form field: reported inhibition of `COc1cc(C=NNc2ncnc3c2cnn3Cc2ccccc2)ccc1O` -0.48

Would you mind telling me what inhibition value was observed for `Cc1cc(-c2ccco2)cc(C)c1/C=C/c1cncc(-c2nn[nH]n2)c1` ? 0.6

Query: inhibition; subject: `CCn1c(-c2nonc2N)nc2c(C#CCN)ncc(OCCCN)c21` -3.07

If you can, please state the reported inhibition value of `NS(=O)(=O)c1ccc(-c2ccc3c(NC(=O)C4CC4)n[nH]c3c2)cc1` . 4.23

# lookup: inhibition of `CCn1c(-c2nonc2N)nc2c(C#CC(C)(C)O)ncc(OC[C@@H]3CCCN3)c21` 0.92

Please give the measured inhibition for this molecule: `NC(=O)c1sc(-n2cnc3cc(C(F)(F)F)ccc32)cc1OCc1ccccc1Br` 1.72

Find the recorded inhibition belonging to `Nc1nonc1-c1nc2cnccc2n1C1CCCCC1` and report it. -0.67

Look up inhibition: `NS(=O)(=O)c1ccc(N/C=C2\C(=O)Nc3ccc4ncsc4c32)cc1` 20.2

I am curious: what inhibition value has been reported for `COc1cccc(-n2ncc3c(N/N=C/c4ccncc4)ncnc32)c1` ? 11.2

----------
# Study system: Serine/threonine-protein kinase MARK1 (Homo sapiens) (UniProt Q9P0L2)
# Sequence (Q9P0L2 whole entry, looked up): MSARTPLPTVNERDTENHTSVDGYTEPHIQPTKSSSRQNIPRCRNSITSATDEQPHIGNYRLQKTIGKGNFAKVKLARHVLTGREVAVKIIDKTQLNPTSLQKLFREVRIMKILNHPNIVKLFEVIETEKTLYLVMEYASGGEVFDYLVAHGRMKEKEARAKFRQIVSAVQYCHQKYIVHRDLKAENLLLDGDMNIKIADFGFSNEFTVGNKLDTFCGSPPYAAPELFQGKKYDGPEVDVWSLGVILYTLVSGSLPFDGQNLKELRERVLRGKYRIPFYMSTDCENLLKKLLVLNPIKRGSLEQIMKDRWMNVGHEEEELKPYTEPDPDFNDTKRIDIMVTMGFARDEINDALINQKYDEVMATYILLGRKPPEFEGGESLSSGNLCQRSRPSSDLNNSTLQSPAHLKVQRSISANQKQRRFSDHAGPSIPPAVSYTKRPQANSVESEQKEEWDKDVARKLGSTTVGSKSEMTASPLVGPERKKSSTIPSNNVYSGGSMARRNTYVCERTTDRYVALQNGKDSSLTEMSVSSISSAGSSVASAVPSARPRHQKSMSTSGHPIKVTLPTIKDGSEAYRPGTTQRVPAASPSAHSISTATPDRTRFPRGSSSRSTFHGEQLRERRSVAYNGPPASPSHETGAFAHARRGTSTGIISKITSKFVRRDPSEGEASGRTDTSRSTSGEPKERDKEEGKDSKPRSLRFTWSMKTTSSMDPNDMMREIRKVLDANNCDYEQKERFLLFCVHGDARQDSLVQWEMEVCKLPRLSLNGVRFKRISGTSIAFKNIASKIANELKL
# Condition summary: at 0.1 µM
# Description: GSK_PKIS: MARK1 mean inhibition at 0.1 uM [Nanosyn]
Outcome measure: inhibition

Return inhibition measured with Serine/threonine-protein kinase MARK1 (Homo sapiens) (UniProt Q9P0L2) given this molecule: `COc1cc2c(cc1Nc1nc(Nc3ccsc3C(N)=O)c3cc[nH]c3n1)N(C(=O)CN(C)C)CCC2` 2.48%

Item: `Cc1cc(-c2ccco2)cc(C)c1/C=C/c1cncc(-c2nn[nH]n2)c1` Test system: Serine/threonine-protein kinase MARK1 (Homo sapiens) (UniProt Q9P0L2) Read-out: inhibition Value: ? 1.07%

Form field: inhibition recorded for `Fc1ccc(-c2ncn(C3CCNCC3)c2-c2ccnc(Oc3ccccc3)n2)cc1` with Serine/threonine-protein kinase MARK1 (Homo sapiens) (UniProt Q9P0L2) (enter value) 0.45%

For Serine/threonine-protein kinase MARK1 (Homo sapiens) (UniProt Q9P0L2), provide inhibition of `CCn1c(-c2nonc2N)nc2c(C#CC(C)(C)O)nc(O[C@@H](CN)c3ccccc3)cc21` please. 77.2%

Item `COc1cccc(COc2cc(-n3cnc4ccccc43)sc2C(N)=O)c1` with Serine/threonine-protein kinase MARK1 (Homo sapiens) (UniProt Q9P0L2) - inhibition? 0.58%

Give inhibition (Serine/threonine-protein kinase MARK1 (Homo sapiens) (UniProt Q9P0L2)) of the following molecule: `COc1cc(C=NNc2ncnc3c2cnn3Cc2ccccc2)ccc1O` -0.6%

What value of inhibition on Serine/threonine-protein kinase MARK1 (Homo sapiens) (UniProt Q9P0L2) does `COc1cccc(-n2ncc3c(N/N=C/c4ccncc4)ncnc32)c1` have? 4.99%

Query inhibition on Serine/threonine-protein kinase MARK1 (Homo sapiens) (UniProt Q9P0L2) for `CCn1c(-c2nonc2N)nc2c(C#CC(C)(C)O)ncc(OC[C@@H]3CCCN3)c21` 13.8%

----------
# Study system: Ephrin type-A receptor 4 (Homo sapiens)
# Condition summary: at 1 µM
# Description: GSK_PKIS: EPHA4 mean inhibition at 1 uM [Nanosyn]
Outcome measure: inhibition (%)
The reply should be a number in %, with the unit left off.

Quick check: inhibition of `COc1cccc(-n2ncc3c(N/N=C/c4ccncc4)ncnc32)c1` ? 35.5

Look up inhibition for this molecule: `Cc1cc(-c2ccco2)cc(C)c1/C=C/c1cncc(-c2nn[nH]n2)c1` 3.95

Item `Nc1nonc1-c1nc2cnccc2n1C1CCCCC1` has what recorded inhibition? -3.51

Name the reported inhibition value associated with the molecule `NC(=O)c1sc(-n2cnc3cc(C(F)(F)F)ccc32)cc1OCc1ccccc1Br` 8.16

Name the reported inhibition value associated with the molecule `NS(=O)(=O)c1ccc(-c2ccc3c(NC(=O)C4CC4)n[nH]c3c2)cc1` 1.43

Quick one: inhibition of `Fc1ccc(-c2ncn(C3CCNCC3)c2-c2ccnc(Oc3ccccc3)n2)cc1` ? 5.9

I'd like to know its inhibition. The molecule in question is `COc1cc2c(cc1Nc1nc(Nc3ccsc3C(N)=O)c3cc[nH]c3n1)N(C(=O)CN(C)C)CCC2` 4.13

Consider the molecule `CCn1c(-c2nonc2N)nc2c(C#CC(C)(C)O)nc(O[C@@H](CN)c3ccccc3)cc21` and give its measured inhibition. -4.76

I'd like to know its inhibition. The molecule in question is `NS(=O)(=O)c1ccc(N/C=C2\C(=O)Nc3ccc4ncsc4c32)cc1` 22.4

----------
# Study system: Tyrosine-protein kinase JAK1 (Homo sapiens) (UniProt P23458);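 also: each value is a mean inhibition of JAK1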
# Sequence (P23458 whole entry): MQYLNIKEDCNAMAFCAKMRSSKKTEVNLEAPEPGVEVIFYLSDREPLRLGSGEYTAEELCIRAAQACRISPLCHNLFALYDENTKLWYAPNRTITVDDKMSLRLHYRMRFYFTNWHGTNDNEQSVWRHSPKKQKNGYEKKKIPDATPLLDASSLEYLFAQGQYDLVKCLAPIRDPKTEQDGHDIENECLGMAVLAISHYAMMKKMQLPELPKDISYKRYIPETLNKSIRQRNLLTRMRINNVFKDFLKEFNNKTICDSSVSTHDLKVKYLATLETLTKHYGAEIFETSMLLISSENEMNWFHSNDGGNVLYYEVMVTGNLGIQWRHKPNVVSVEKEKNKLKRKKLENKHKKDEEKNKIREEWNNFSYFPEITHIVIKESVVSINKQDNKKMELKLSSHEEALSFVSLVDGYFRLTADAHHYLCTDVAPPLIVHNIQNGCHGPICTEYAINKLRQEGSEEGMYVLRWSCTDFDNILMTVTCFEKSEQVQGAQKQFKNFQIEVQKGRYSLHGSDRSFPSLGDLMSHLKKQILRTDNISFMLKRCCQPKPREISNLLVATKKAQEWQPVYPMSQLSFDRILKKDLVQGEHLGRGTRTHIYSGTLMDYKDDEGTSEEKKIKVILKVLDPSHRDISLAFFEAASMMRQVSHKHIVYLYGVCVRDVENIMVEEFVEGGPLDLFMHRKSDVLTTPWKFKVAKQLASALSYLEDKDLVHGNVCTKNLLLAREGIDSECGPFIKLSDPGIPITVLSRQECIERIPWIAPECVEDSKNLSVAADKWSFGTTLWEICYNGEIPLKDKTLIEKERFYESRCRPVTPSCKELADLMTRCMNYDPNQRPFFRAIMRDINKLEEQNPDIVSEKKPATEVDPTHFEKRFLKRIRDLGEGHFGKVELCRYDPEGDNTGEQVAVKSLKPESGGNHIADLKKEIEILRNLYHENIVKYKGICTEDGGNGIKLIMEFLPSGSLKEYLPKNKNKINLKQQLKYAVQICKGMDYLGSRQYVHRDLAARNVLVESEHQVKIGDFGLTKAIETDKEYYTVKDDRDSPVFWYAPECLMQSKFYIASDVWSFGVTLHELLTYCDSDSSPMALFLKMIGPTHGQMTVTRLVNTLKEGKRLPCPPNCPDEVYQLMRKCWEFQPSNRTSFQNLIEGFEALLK
# Condition summary: at 1 µM
Outcome measure: inhibition (%)
Give the value, in units of %, as a plain number.

I have this compound here, `NS(=O)(=O)c1ccc(-c2ccc3c(NC(=O)C4CC4)n[nH]c3c2)cc1` , and I need its recorded inhibition. -1.13

# get_value(readout='inhibition', item= `Fc1ccc(-c2ncn(C3CCNCC3)c2-c2ccnc(Oc3ccccc3)n2)cc1` ) -0.07

What does the record list as inhibition for `Nc1nonc1-c1nc2cnccc2n1C1CCCCC1` ? 2.81

Using the record for `CCn1c(-c2nonc2N)nc2c(C#CC(C)(C)O)ncc(OCC3CCNCC3)c21` , report its inhibition. 12.5

Fill blank: measured inhibition of the compound `Cc1cc(-c2ccco2)cc(C)c1/C=C/c1cncc(-c2nn[nH]n2)c1` is ____. 3.09

Given `COc1cc(C=NNc2ncnc3c2cnn3Cc2ccccc2)ccc1O` , state its recorded inhibition. 3.34

----------
# Study system: Rho-associated protein kinase 1 (Homo sapiens);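 also: reported values are mean percent inhibition of ROCK1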
# Condition summary: at 1 µM
Outcome measure: inhibition (%)
# value in %; strip the unit string

Query (compound): `CCn1c(-c2nonc2N)nc2c(C#CC(C)(C)O)ncc(OCC3CCNCC3)c21` ; field requested: inhibition 13.7

Would you mind telling me what inhibition value was observed for `NS(=O)(=O)c1ccc(-c2ccc3c(NC(=O)C4CC4)n[nH]c3c2)cc1` ? 2.34

Fill in the blank: the reported inhibition of `COc1cccc(COc2cc(-n3cnc4ccccc43)sc2C(N)=O)c1` is ____. -0.3

Recorded inhibition of `COc1cccc(-n2ncc3c(N/N=C/c4ccncc4)ncnc32)c1` , please. 9.67

Which inhibition reading was recorded for the compound `Fc1ccc(-c2ncn(C3CCNCC3)c2-c2ccnc(Oc3ccccc3)n2)cc1` ? 1.62

// lookup inhibition for `CCn1c(-c2nonc2N)nc2c(C#CCN)ncc(OCCCN)c21` 48.7

Need inhibition, item `Cc1cc(-c2ccco2)cc(C)c1/C=C/c1cncc(-c2nn[nH]n2)c1` 1.58

Name the recorded inhibition for `Nc1nonc1-c1nc2cnccc2n1C1CCCCC1` . 78.4

Return reported inhibition; argument: `NS(=O)(=O)c1ccc(N/C=C2\C(=O)Nc3ccc4ncsc4c32)cc1` 33

Using the record for `COc1cc(C=NNc2ncnc3c2cnn3Cc2ccccc2)ccc1O` , report its inhibition. 5.87

----------
Field: inhibition. Provide a value for each of the molecules that follow.
# Study system: Ephrin type-A receptor 2 (Homo sapiens) (UniProt P29317);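 also: reported values are mean percent inhibition of EPHA2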
# Sequence (P29317 whole entry): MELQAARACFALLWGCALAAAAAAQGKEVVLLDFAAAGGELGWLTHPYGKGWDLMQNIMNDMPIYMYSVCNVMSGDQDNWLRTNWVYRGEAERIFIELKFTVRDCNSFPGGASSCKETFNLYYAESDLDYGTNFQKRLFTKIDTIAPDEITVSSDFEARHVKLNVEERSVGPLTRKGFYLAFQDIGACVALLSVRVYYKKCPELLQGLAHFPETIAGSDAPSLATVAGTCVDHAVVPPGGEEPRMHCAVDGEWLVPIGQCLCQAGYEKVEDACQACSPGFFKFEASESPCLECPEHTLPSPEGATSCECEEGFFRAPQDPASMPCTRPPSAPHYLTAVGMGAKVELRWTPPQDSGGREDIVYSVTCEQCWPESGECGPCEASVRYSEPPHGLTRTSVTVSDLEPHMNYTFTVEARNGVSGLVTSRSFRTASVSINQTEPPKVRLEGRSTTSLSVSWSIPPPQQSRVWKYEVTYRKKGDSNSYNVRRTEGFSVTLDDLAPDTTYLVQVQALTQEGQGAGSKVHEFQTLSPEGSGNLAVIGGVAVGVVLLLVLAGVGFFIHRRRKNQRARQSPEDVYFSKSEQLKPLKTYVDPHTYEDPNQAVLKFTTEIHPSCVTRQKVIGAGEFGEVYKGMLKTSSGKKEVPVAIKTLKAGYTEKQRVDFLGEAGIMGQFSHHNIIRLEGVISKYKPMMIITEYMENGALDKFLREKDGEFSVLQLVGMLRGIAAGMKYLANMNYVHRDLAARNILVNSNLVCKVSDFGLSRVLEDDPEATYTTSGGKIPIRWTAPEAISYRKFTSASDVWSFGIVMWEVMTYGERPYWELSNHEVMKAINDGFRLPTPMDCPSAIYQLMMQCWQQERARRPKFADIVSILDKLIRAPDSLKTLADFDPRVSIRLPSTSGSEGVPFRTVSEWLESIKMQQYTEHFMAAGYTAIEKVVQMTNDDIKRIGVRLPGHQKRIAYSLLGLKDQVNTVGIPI
# Condition summary: at 0.1 µM
Your answer is read as %, so omit the unit and give the number.

Look up inhibition: `Cc1cc(-c2ccco2)cc(C)c1/C=C/c1cncc(-c2nn[nH]n2)c1` 1.36

Data request, read-out inhibition, for `CCn1c(-c2nonc2N)nc2c(C#CC(C)(C)O)nc(O[C@@H](CN)c3ccccc3)cc21` -2.73

Given `CCn1c(-c2nonc2N)nc2c(C#CC(C)(C)O)ncc(OCC3CCNCC3)c21` , state its recorded inhibition. -2.64

So what's the measured inhibition for this one? `NC(=O)c1sc(-n2cnc3cc(C(F)(F)F)ccc32)cc1OCc1ccccc1Br` 2.18

Give the measured inhibition of `COc1cccc(COc2cc(-n3cnc4ccccc43)sc2C(N)=O)c1` . 1.52

Which measured inhibition value corresponds to `NS(=O)(=O)c1ccc(-c2ccc3c(NC(=O)C4CC4)n[nH]c3c2)cc1` ? 3

Would you mind telling me what inhibition value was observed for `Fc1ccc(-c2ncn(C3CCNCC3)c2-c2ccnc(Oc3ccccc3)n2)cc1` ? -5.61

If you can, please state the reported inhibition value of `CCn1c(-c2nonc2N)nc2c(C#CC(C)(C)O)ncc(OC[C@@H]3CCCN3)c21` . 1.83
